Biological target: Calcium/calmodulin-dependent protein kinase type II subunit beta (Homo sapiens)
Sequence (Q13554 whole entry): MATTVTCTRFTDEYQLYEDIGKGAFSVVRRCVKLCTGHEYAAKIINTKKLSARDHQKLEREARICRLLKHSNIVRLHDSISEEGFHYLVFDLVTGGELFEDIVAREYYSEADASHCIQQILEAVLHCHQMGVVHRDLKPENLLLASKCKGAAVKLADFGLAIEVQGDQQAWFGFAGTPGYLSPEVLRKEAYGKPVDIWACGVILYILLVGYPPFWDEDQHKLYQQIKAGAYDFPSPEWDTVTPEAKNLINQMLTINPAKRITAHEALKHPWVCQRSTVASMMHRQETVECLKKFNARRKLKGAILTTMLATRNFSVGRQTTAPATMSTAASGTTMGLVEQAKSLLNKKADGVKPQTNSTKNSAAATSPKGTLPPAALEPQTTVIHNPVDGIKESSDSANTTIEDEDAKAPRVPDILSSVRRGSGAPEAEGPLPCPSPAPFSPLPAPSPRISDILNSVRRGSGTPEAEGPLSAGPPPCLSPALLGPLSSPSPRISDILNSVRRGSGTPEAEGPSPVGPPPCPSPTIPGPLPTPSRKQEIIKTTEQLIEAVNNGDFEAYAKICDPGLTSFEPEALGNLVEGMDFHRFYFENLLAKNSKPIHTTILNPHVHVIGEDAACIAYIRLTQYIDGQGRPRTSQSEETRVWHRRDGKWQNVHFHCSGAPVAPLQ
Assay: Inhibition of CAMK2 using autocamtide-2 as substrate after 30 mins by PKLight assay
Each item that follows carries a reported pIC50.
Scale note: pIC50 = -log10(concentration in M).

Look up pIC50 with Calcium/calmodulin-dependent protein kinase type II subunit beta (Homo sapiens) for this compound: `O=c1c(O)c(-c2ccc(O)c(O)c2)oc2cc(O)cc(O)c12` 5.52

Lookup: pIC50 / Calcium/calmodulin-dependent protein kinase type II subunit beta (Homo sapiens) / `O=C(CCCC[C@@H]1SC[C@@H]2NC(=O)N[C@@H]21)NCCOCCOCCNC(=O)COc1cc(O)c2c(=O)c(O)c(-c3ccc(O)c(O)c3)oc2c1` 4.59
